Test system: Saccharomyces cerevisiae
MEASUREMENT PROTOCOL: protein stability index of tFT-peptide fusion (C-terminal peptide) (PSI (0-1 scale)); higher = more stable (slower turnover)
TEST PARAMETERS: genetic background: das1 deletion; temperature: 30 C
ENDPOINT LABEL: protein stability index
Numbers only.

Example cases with answers are listed next.
| MONOMER SEQUENCE | protein stability index |
| --- | --- |
| SNSNQHFGNVTF [IME2 C-terminal 12 aa] | 0.713 |
| SVEEAFQLKSFD [LAA1 C-terminal 12 aa] | 0.713 |
| AKCGEWTPELSS [CPR2 C-terminal 12 aa] | 0.715 |
| PTPPGLQGPPGL [MSL5 C-terminal 12 aa] | 0.692 |
| FSALMGESDDEE [TIF4631 C-terminal 12 aa] | 0.659 |

--- query ---
(Q) Give protein stability index (Saccharomyces cerevisiae) of the following sequence: VNNFKMFSNSSV [YIL115W-A C-terminal 12 aa]
(A) 0.704
